- test.system: T1, natriuretic peptide receptor-B (human)
- T1 chain: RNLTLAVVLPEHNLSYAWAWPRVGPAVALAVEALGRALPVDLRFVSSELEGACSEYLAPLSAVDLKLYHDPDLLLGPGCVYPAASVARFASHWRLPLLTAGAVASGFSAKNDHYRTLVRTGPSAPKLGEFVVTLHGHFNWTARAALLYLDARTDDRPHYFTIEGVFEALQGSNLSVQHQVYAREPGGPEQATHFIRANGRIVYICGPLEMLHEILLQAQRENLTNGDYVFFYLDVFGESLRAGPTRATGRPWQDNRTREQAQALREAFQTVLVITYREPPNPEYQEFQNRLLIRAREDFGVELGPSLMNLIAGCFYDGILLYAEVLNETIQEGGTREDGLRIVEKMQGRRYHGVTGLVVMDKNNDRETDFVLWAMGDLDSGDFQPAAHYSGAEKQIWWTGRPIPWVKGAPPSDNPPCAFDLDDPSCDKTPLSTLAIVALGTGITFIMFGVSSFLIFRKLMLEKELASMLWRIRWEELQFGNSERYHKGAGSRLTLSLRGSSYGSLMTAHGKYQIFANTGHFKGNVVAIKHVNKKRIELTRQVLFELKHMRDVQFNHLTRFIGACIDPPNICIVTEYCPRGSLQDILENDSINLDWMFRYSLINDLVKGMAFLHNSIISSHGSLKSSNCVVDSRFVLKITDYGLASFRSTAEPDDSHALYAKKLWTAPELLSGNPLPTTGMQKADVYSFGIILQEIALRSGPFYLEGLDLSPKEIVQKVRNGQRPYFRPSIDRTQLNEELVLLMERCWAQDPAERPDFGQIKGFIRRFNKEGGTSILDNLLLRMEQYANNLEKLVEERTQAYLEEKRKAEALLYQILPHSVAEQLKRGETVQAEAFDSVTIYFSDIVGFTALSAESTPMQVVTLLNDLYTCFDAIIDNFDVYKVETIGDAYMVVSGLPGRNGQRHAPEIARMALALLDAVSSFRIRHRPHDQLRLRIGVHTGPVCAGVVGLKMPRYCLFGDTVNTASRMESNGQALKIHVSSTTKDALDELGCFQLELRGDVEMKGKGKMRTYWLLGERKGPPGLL
- test.protocol: cell-based or functional assay
Numbered stars: 1 amine (or outer) side, 2 acyl side, 3 side chain; on linkers, the order of the positions; unused ones are H or OH. Square brackets hold non-standard residues; d marks the D form. Ends that are not written are not given here. * marks the point of attachment. aFL = (S)-2-((R)-3-amino-2-oxopyrrolidin-1-yl)-3-phenylpropanoic acid, O=C1[C@H](N[*:1])CCN1[C@@H](Cc1ccccc1)C(=O)[*:2]; Eal = rac-imidazolidine-2-carboxylic acid, O=C(C1N([*:1])CCN1[*:3])[*:2]; Sni = (S)-nipecotic acid, O=C([C@H]1CCCN([*:1])C1)[*:2]; NMeR = CN[C@@H](CCCNC(=N)N)C(=O)O; Hyp = O=C(O)[C@@H]1C[C@@H](O)CN1; NMeL = CN[C@@H](CC(C)C)C(=O)O; Octanoyl = CCCCCCCC(=O)*; 1934 = not defined here; Che = not defined here; leu = not defined here; Occ = octanoic acid
This section presents binders with their documented EC50 group, cGMP in GTM-3 cells values.

[
  {
    "binder": "Octanoyl-AAFGLKLDR[1934] (not fully specified (some residues); printed as Occ-ala-ala-Phe-Gly-Leu-Lys-Leu-Asp-Arg-1934; reading uncertain) [JAL-0799]",
    "EC50 group, cGMP in GTM-3 cells": "≤ 5 µM"
  },
  {
    "binder": "[Occ][Sni]F[leu]L[Hyp][NMeL]D[Eal][Che] (reading uncertain; also: printed as Occ-Sni-Phe-leu-Leu-Hyp-Nml-Asp-Eal-Che) [JAL-1639]",
    "EC50 group, cGMP in GTM-3 cells": "≤ 5 µM"
  },
  {
    "binder": "[Occ][aFL][leu]L[Hyp][NMeL]DRI-NH2 (reading uncertain; also: printed as Occ-(aFL)-leu-Leu-Hyp-Nml-Asp-Arg-Ile-NH2) [JAL-1636]",
    "EC50 group, cGMP in GTM-3 cells": "≤ 5 µM"
  },
  {
    "binder": "[Occ][dA]F[dA]LPLDRI-NH2 [JAL-0944]",
    "EC50 group, cGMP in GTM-3 cells": "≤ 15 µM"
  },
  {
    "binder": "[Occ][Sni]F[dL]L[Hyp][NMeL]D[NMeR]I-NH2 [JAL-1570]",
    "EC50 group, cGMP in GTM-3 cells": "≤ 5 µM"
  }
]

The reported measurements were obtained from patent US9187525B2.
